Biological target: UniProt:P56373
Assay: Inhibition of ATP-induced calcium fluorescence (Fluo-3, FDSS 3000) in C6BU-1 cells stably expressing human P2X3 receptor
Conditions: C6BU-1 cell transfected with human P2X3 receptor gene; 40 nM ATP solution; Fluo-3 fluorescence intensity
Exercise: for every item that follows, state its recorded pIC50.
// field semantics: pIC50 = negative decimal log of concentration (mol/L)

Data point: COc1ccc(C(=O)C2=C(O)C(=O)N(c3nc(-c4ccncc4)cs3)C2C2CCCCC2)cc1 (centres unmarked) ; pIC50 = 6.15

Data point: COc1ccccc1C1C(C(=O)C(C)(C)CO)=C(O)C(=O)N1c1ccc(-c2ccon2)cc1 (centres unmarked) ; pIC50 = 6.13

Data point: CC(=O)Nc1ccc(-c2n[nH]c3c2C(C2CCCCC2)N(c2ccc(-c4ccon4)cc2)C3=O)cc1 (centres unmarked) ; pIC50 = 5.79

Data point: COc1ccc(C(=O)C2=C(O)C(=O)N(CCc3ccc(F)cc3)C2c2ccccc2OC)cc1 (centres unmarked) ; pIC50 = 5.66

Data point: COc1ccccc1C1c2c(-c3ccc(C)cc3)n[nH]c2C(=O)N1c1ccc(F)cc1 (centres unmarked) ; pIC50 = 6.25

Data point: CCOC(=O)c1ccc(N2C(=O)C(O)=C(C(=O)C3CCC3)C2c2ccccc2)cc1 (centres unmarked) ; pIC50 = 5.89

Data point: CCCCC(=O)C1=C(O)C(=O)N(c2ccc(C(=O)OCC)cc2)C1c1ccccc1 (centres unmarked) ; pIC50 = 5.99

Data point: CCOC(=O)c1ccc(N2C(=O)C(O)=C(C(=O)c3cccs3)C2c2ccccc2)cc1 (centres unmarked) ; pIC50 = 6.42

----------
Exercise: for every item that follows, state its recorded melting point.

Data point: CCOC(=O)c1ccc(N2C(=O)/C(=N\O)C(/C(=N\O)c3ccc(OC)cc3)C2c2ccccc2)cc1 (centres unmarked) ; melting point = 219 to 221 °C (dec.)

Data point: COc1ccc(C(=O)C2=C(O)C(=O)N(c3ccc(-c4cc(C)no4)cc3)C2c2ccc(F)cc2)cc1 (centres unmarked) ; melting point = 249 to 252 °C

Data point: COc1ccc(C(=O)C2C(=O)C(=O)N(c3ccc(-c4cnco4)cc3)C2c2ccccc2)cc1 (centres unmarked) ; melting point = 253 to 254 °C

Data point: CC(C)(C)C1=NCCNC2=C1C(C1CCCCC1)N(c1ccc(-c3ccon3)cc1)C2=O (centres unmarked) ; melting point = 229 to 230 °C

Data point: CC(C)(C)C(=O)C1/C(=N/O)C(=O)N(c2ccc(-c3ccon3)cc2)C1C1CCCCC1 (centres unmarked) ; melting point = 255 to 256 °C

Data point: COc1ccc(C(=O)C2C(=O)C(=O)N(c3ccc(-c4ccon4)cc3)C2c2ccc(F)cc2)cc1 (centres unmarked) ; melting point = 269 to 274 °C (dec.)

Data point: CC(C)(C)C(=O)C1=C(O)C(=O)N(c2ccc(-c3ccon3)cc2)C1C1CCCCC1 (centres unmarked) ; melting point = 259 to 260 °C

Data point: COc1ccc(C2C(Cc3ccccc3)=C(O)C(=O)N2c2ccc(F)cc2)cc1 (centres unmarked) ; melting point = 177 to 178 °C

----------
Exercise: for every item that follows, state its recorded pIC50.
Biological target: human P2X3 receptor (Homo sapiens, UniProt P56373)
Sequence (P56373 whole entry): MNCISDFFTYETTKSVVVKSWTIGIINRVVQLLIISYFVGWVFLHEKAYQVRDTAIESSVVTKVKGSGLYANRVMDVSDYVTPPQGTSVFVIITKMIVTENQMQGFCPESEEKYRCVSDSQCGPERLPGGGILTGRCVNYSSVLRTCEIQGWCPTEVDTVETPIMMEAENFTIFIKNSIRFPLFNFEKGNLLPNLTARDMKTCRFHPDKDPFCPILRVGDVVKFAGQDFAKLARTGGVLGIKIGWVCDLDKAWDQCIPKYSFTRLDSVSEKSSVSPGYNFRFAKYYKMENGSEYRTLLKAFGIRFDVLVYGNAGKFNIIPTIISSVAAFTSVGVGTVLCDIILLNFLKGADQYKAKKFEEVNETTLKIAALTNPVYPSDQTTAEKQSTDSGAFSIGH
Experiment: Inhibition of ATP-induced calcium fluorescence (Fluo-3, FDSS 3000) in C6BU-1 cells stably expressing human P2X3 receptor
Conditions: C6BU-1 cell transfected with human P2X3 receptor gene; 40 nM ATP solution; Fluo-3 fluorescence intensity
// field semantics: pIC50 = negative decimal log of concentration (mol/L)

Data point: COc1ccc(C(=O)C2=C(O)C(=O)N(c3ccc(Cl)cc3)C2c2ccc(F)cc2)cc1 (stereo not shown) ; pIC50 = 5.46

Data point: Nc1ccc(C(=O)C2=C(O)C(=O)N(c3ccc(-c4ccon4)cc3)C2C2CCCCC2)cc1 (stereo not shown) ; pIC50 = 6.89

Data point: COc1ccccc1C1c2c(C(C)(C)C)n[nH]c2C(=O)N1c1ccc(-c2cc(C(=O)N(C)C)no2)cc1 (stereo not shown) ; pIC50 = 5.70

Data point: C#Cc1ccc(N2C(=O)C(O)=C(C(=O)c3ccc(OC)cc3)C2c2ccc(F)cc2)cc1 (stereo not shown) ; pIC50 = 5.77

Reference source: patent US8497263B2
